Values compiled from patent US20180037631A1.

# TARGET DESC: T1, IGF1R-Fc (extracellular domain of human IGF1R aa 1-932 fused to hinge and constant regions of human IgG1) (human, UniProt P08069 31-932)
# T1 construct: range 1-932; made in house by transient transfection, purified on Protein A; also called IGF-IR-Fc; not shown: hinge and constant regions of human IgG1
pKd: −log10 of the molar value.
# pKd values compiled below
PARAMETER: pKd

{"BINDER": "E96-GS10-I1 pegylated (designed binder, Cys of the C-terminal Cys tail conjugated to 40 kDa branched PEG) E/I tandem 10Fn3 chain: MGVSDVPRDLEVVAATPTSLLISWASNRGTYQYYRITYGETGGNSPVQEFTVPGGVSTATISGLKPGVDYTITVYAVTDAFNPTTHEYNYFTTPISINYRTEIDKGSGSGSGSGSGSGSGSGSGSVSDVPRDLEVVAATPTSLLISWSARLKVARYYRITYGETGGNSPVQEFTVPKNVYTATISGLKPGVDYTITVYAVTRFRDYQPISINYRTEIDKPCQHHHHHH", "PARAMETER": "pKd", "DATA VALUE": 9.02}
{"BINDER": "E1-GS10-I1 pegylated, His-tagged (designed binder, 40 kDa branched PEG on the Cys of the C-terminal Cys tail, also called E1-GS10-I1 (with PEG)) MGVSDVPRDLEVVAATPTSLLISWVAGAEDYQYYRITYGETGGNSPVQEFTVPHDLVTATISGLKPGVDYTITVYAVTDMMHVEYTEHPISINYRTEIDKGSGSGSGSGSGSGSGSGSGSVSDVPRDLEVVAATPTSLLISWSARLKVARYYRITYGETGGNSPVQEFTVPKNVYTATISGLKPGVDYTITVYAVTRFRDYQPISINYRTEIDKPCQHHHHHH", "PARAMETER": "pKd", "DATA VALUE": 8.61}
{"BINDER": "E105-GS10-I1 pegylated (designed binder, chain 1 pos 221: Cys carrying a maleimide-linked 40 kDa branched PEG, written C, lower row of the two named E105-GS10-I1 pegylated) MGVSDVPRDLEVVAATPTSLLISWDAPTSRYQYYRITYGETGGNSPVQEFTVPGGLSTATISGLKPGVDYTITVYAVTDYKPHADGPHTYHESPISINYRTEIDKGSGSGSGSGSGSGSGSGSGSVSDVPRDLEVVAATPTSLLISWSARLKVARYYRITYGETGGNSPVQEFTVPKNVYTATISGLKPGVDYTITVYAVTRFRDYQPISINYRTEIDKPCQHHHHHH", "PARAMETER": "pKd", "DATA VALUE": 8.92}
{"BINDER": "E85-GS10-I1 pegylated (designed binder, Cys of the C-terminal Cys tail conjugated to 40 kDa branched PEG) E/I tandem 10Fn3 chain: MGVSDVPRDLEVVAATPTSLLISWTQGSTHYQYYRITYGETGGNSPVQEFTVPGMVYTATISGLKPGVDYTITVYAVTDYFDRSTHEYKYRTTPISINYRTEIDKGSGSGSGSGSGSGSGSGSGSVSDVPRDLEVVAATPTSLLISWSARLKVARYYRITYGETGGNSPVQEFTVPKNVYTATISGLKPGVDYTITVYAVTRFRDYQPISINYRTEIDKPCQHHHHHH", "PARAMETER": "pKd", "DATA VALUE": 9.12}
{"BINDER": "I1-GS10-E4 pegylated, His-tagged (designed binder, 40 kDa branched PEG on the Cys of the C-terminal Cys tail) MGVSDVPRDLEVVAATPTSLLISWSARLKVARYYRITYGETGGNSPVQEFTVPKNVYTATISGLKPGVDYTITVYAVTRFRDYQPISINYRTEIDKGSGSGSGSGSGSGSGSGSGSVSDVPRDLEVVAATPTSLLISWHERDGSRQYYRITYGETGGNSPVQEFTVPGGVRTATISGLKPGVDYTITVYAVTDYFNPTTHEYIYQTTPISINYRTEIDKPCQHHHHHH", "PARAMETER": "pKd", "DATA VALUE": 9.34}
